The reported numbers originate from ChEMBL document CHEMBL1681670.

Test system: KB
Experiment: Cytotoxicity against human KB cells after 3 days by MTT assay
Format: functional, cell-based
Details: 72 h
recorded-metric: pIC50
Numbers only, as −log10 of the molar value.

Examples with answers:
{"mol": "C/C=C/C(=O)OC[C@H]1C2=C(C[C@H]3[C@H]4C5=C(C[C@@H](C(=O)N13)N4C)C(=O)C(C)=C(OC)C5=O)C(=O)C(C)=C(OC)C2=O", "pIC50": 5.28}
{"mol": "COC1=C(C)C(=O)C2=C(C1=O)[C@@H]1[C@@H]3CC4=C(C(=O)C(OC)=C(C)C4=O)[C@H](COC(=O)c4cc5ccccc5[nH]4)N3C(=O)[C@H](C2)N1C", "pIC50": 5.47}

Report pIC50 for each item below.
1. COC1=C(C)C(=O)C2=C(C1=O)[C@@H]1[C@@H]3CC4=C(C(=O)C(OC)=C(C)C4=O)[C@H](COC(=O)/C=C/c4cccnc4)N3C(=O)[C@H](C2)N1C
2. COC1=C(C)C(=O)C2=C(C1=O)[C@@H]1[C@@H]3CC4=C(C(=O)C(OC)=C(C)C4=O)[C@H](COC(=O)/C=C/c4ccc(F)cc4)N3C(=O)[C@H](C2)N1C
3. COC1=C(C)C(=O)C2=C(C1=O)[C@@H]1[C@@H]3CC4=C(C(=O)C(OC)=C(C)C4=O)[C@H](COC(=O)c4cccs4)N3C(=O)[C@H](C2)N1C
4. COC1=C(C)C(=O)C2=C(C1=O)[C@@H]1[C@@H]3CC4=C(C(=O)C(OC)=C(C)C4=O)[C@H](COC(=O)/C=C/c4ccc(OC)cc4)N3C(=O)[C@H](C2)N1C

1. 6.41
2. 5.40
3. 7.70
4. 5.43

Provide pIC50 for all items below, preserving their order.
1. COC1=C(C)C(=O)C2=C(C1=O)[C@@H]1[C@@H]3CC4=C(C(=O)C(OC)=C(C)C4=O)[C@H](COC(=O)c4cccnc4)N3C(=O)[C@H](C2)N1C
2. COC1=C(C)C(=O)C2=C(C1=O)[C@@H]1[C@@H]3CC4=C(C(=O)C(OC)=C(C)C4=O)[C@H](COC(C)=O)N3C(=O)[C@H](C2)N1C
3. COC1=C(C)C(=O)C2=C(C1=O)[C@@H]1[C@@H]3CC4=C(C(=O)C(OC)=C(C)C4=O)[C@H](COC(=O)/C=C/c4ccc(OC)c(OC)c4OC)N3C(=O)[C@H](C2)N1C

[5.50, 5.65, 5.09]

Can you give me pIC50 for all of these, one by one?
1. COC1=C(C)C(=O)C2=C(C1=O)[C@@H]1[C@@H]3CC4=C(C(=O)C(OC)=C(C)C4=O)[C@H](COC(=O)c4ccccc4)N3C(=O)[C@H](C2)N1C
2. C/C=C/C=C/C(=O)OC[C@H]1C2=C(C[C@H]3[C@H]4C5=C(C[C@@H](C(=O)N13)N4C)C(=O)C(C)=C(OC)C5=O)C(=O)C(C)=C(OC)C2=O

[5.55, 5.69]

====

System: HeLa
Assay: Cytotoxicity against human HeLa cells after 3 days by MTT assay
Format: functional, cell-based
Conditions: 72 h
recorded-metric: pIC50
Answers are plain numbers, as −log10 of the molar value.

Example entries begin here.
{"mol": "COC1=C(C)C(=O)C2=C(C1=O)[C@@H]1[C@@H]3CC4=C(C(=O)C(OC)=C(C)C4=O)[C@H](COC(=O)c4cccs4)N3C(=O)[C@H](C2)N1C", "tested-on": "HeLa", "pIC50": 6.33}
{"mol": "COC1=C(C)C(=O)C2=C(C1=O)[C@@H]1[C@@H]3CC4=C(C(=O)C(OC)=C(C)C4=O)[C@H](COC(=O)c4cccc5ccccc45)N3C(=O)[C@H](C2)N1C", "tested-on": "HeLa", "pIC50": 5.12}

Next:
Recorded pIC50 for COC1=C(C)C(=O)C2=C(C1=O)[C@@H]1[C@@H]3CC4=C(C(=O)C(OC)=C(C)C4=O)[C@H](COC(C)=O)N3C(=O)[C@H](C2)N1C , please?
5.57
